Reference source for all entries: patent US20250339569A1

ASSAY DETAILS: Biodistribution study (SPECT/CT) in HT-29 tumor-bearing mice
Format: in vivo, NMRI nude mice
APPLIED CONDITIONS: female, NMRI nude, mouse, in vivo, iv, total radioactivity, Blood uptake at 4 h p.i.
ENDPOINT: tissue uptake at 4 h

SMILES STR	ENDPOINT VALUE
CC(C)C[C@@H]1NC(=O)[C@H](Cc2ccc(NC(=O)CCS(N)(=O)=O)cc2)NC(=O)[C@H](CC(=O)O)NC(=O)[C@H]2CCCN2C(=O)[C@H](CCC(=O)O)NC(=O)[C@@H](NC(=O)[C@H](CCC(N)=O)NC(=O)CN2CCN(CC(=O)O)CCN(CC(=O)O)CCN(CC(=O)O)CC2)CSCc2cccc(c2)CSC[C@@H](C(N)=O)NC(=O)[C@H](CO)NC(=O)[C@H](Cc2c[nH]c3ccccc23)NC(=O)[C@H]([C@@H](C)O)NC1=O	0.04 %ID/g
